Data origin: patent US6444691B1

The entries below come with measured Efficiency (%) mucosa (ACAT inhibition) values attached.
Test system: rabbit intestinal mucosa ACAT (acylCoa:cholesterol acyltransferase)
Experiment: In vitro inhibition of ACAT activity, rabbit intestinal mucosa microsomal fraction
Assay type: biochemical
Details: rabbit intestinal mucosa microsomes, concentration 2 μM, versus enzyme activity in 1% dimethylsulfoxide
quantity name: Efficiency (%) mucosa (ACAT inhibition)

>>> df
                                   molecule  recorded_result
0  O=C(Nc1ccc(Cl)cc1)Nc1ccc(Sc2ccc([N+](=O)[O-])cc2)cc1 [Example 31]              21%
1  O=C(Nc1ccc(Oc2ccc([N+](=O)[O-])cc2)cc1)Nc1cc(Cl)cc(Cl)c1 [Example 8]               0%
2  Cc1cccc(C)c1NC(=O)Nc1ccc(Oc2ccc(N)cc2)cc1 [Example 54]              62%
3  O=C(Nc1ccc(Oc2ccc([N+](=O)[O-])cc2)cc1)Nc1cc(F)ccc1F [Example 3]              58%
